Biological target: Pyruvate kinase PKM (Homo sapiens)
Assay: qHTS for Activators of Human Muscle Isoform Pyruvate Kinase: Extended Characterization Using A Lactate Dehydrogenase (LDH) Assay
Details: purified hPK-M2, LDH-coupled NADH fluorescence kinetic
Activity calls are given as the source filed them. The call rests on the fitted dose curve; in most records, active means well fitted activation curve with a large enough effect; inactive means flat fitted curve, though single readings scatter.
Answer each item with its documented Potency.

Input line: Look up and state reported Potency for Cc1cc2c(s1)c1cnn(Cc3cc(F)c(F)cc3F)c(=O)c1n2C
Output line: 0.398 µM (active)

Input line: Look up and state reported Potency for COc1cccc(Cn2ncc3c4sc(S(C)=O)cc4n(C)c3c2=O)c1 (centres undefined)
Output line: 0.146 µM (active)

Input line: Look up and state reported Potency for Cc1cc2c(s1)c1cnn(Cc3c(Cl)ccc(C)c3F)c(=O)c1n2C
Output line: 0.562 µM (active)

Input line: Look up and state reported Potency for Cc1cc2c(s1)c1cnn(Cc3cc(F)ccc3F)c(=O)c1n2C
Output line: 0.447 µM (active)
